Target: T1, recombinant Macaca mulatta ErbB2-ECD (Macaca mulatta, UniProt I0FM22 23-652)
T1 construct: extracellular domain
Test: indirect ELISA, coated ErbB2-ECD

| binder | binding result |
| --- | --- |
| 5G9 chimera (antibody, V domains shown, also called 5G9 chimeric; 5G9 chimeric antibody) VH: QVQLQQSGAELARPGASVKMSCKTSGYTFSSYTIHWVKQRPGQGLDWIGYINPSSDYTAYNQKFRDKATLTADQSSNTAYMQLSSLASADSAVYYCARASAFSLDFWGQGTTLTVSS VL: DIQMTQSPSSLSASLGGKVTISCKASHDIDRYIAWYQHKPGKGPRLLIHYTSTLQPGIPSRFSGSGSGRDYSFSISNLEPEDVATYYCLNYDNLLWTFGGGTKLEIT | binds |
